target: Mitogen-activated protein kinase kinase kinase 9 (Homo sapiens) (UniProt P80192); settings: at 10 µM
Sequence (P80192 whole entry, looked up): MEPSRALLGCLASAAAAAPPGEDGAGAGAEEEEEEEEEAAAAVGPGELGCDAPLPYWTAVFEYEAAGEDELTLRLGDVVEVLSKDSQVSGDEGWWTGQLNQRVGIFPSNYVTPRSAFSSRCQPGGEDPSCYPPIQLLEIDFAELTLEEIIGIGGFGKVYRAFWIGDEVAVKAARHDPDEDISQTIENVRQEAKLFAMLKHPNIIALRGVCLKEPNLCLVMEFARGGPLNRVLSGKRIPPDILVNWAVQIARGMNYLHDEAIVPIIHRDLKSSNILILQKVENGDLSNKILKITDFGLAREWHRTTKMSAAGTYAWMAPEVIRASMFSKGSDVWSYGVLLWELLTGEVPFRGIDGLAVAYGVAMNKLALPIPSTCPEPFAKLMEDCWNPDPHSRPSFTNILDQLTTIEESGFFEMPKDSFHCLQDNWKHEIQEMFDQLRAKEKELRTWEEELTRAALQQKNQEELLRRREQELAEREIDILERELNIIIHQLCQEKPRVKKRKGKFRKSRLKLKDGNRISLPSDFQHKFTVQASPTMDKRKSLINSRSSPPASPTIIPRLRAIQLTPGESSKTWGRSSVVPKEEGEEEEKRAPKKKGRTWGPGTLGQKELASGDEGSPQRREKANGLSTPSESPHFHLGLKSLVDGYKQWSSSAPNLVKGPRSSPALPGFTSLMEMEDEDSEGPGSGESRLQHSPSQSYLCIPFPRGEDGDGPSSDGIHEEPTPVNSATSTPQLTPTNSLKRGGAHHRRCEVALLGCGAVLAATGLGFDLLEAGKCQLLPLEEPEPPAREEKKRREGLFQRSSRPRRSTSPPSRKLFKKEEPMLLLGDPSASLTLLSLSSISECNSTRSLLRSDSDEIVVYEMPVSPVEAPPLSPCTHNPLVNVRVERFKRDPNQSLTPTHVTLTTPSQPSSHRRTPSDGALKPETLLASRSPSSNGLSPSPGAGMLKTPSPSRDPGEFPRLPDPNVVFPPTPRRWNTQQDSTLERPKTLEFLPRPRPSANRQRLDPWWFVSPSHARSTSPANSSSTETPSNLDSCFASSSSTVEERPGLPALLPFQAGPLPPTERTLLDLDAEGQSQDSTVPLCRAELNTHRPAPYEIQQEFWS
# residual activity per entry
Reply with just the number (in %).

# smilesRecord, residual activity / %
records = [
    ("COc1cc2ncnc(Nc3ccc(OCc4ccccc4)cc3)c2cc1OC", 56),
    ("CC(C)[C@H](CO)Nc1nc(Nc2cccc(Cl)c2)c2ncn(C(C)C)c2n1", 1),
    ("O=C1NC(=O)c2c1c1c3ccccc3n3c1c1c2c2ccccc2n1C1CCC3O1", 2),
    ("O=C1Nc2ccc3ncsc3c2/C1=C/c1c[nH]cn1", 2),
    ("COC(=O)[C@@]1(O)C[C@H]2O[C@]1(C)n1c3ccccc3c3c4c(c5c6ccccc6n2c5c31)C(=O)NC4", 0),
    ("COc1ccc2c(c1)/C(=C/c1cnc[nH]1)C(=O)N2", 4),
]

Qu. What value of measured residual activity is listed for `CN[C@@H]1C[C@H]2O[C@@](C)([C@@H]1OC)n1c3ccccc3c3c4c(c5c6ccccc6n2c5c31)C(=O)NC4` ?
Ans. 1

Qu. # query: residual activity of entry `O=[N+]([O-])/C=C/c1ccc2c(c1)OCO2`
Ans. 111

====

Examples of compounds with documented residual activity follow.
Molecular target: Discoidin domain-containing receptor 2 (Homo sapiens)
Sequence (whole entry): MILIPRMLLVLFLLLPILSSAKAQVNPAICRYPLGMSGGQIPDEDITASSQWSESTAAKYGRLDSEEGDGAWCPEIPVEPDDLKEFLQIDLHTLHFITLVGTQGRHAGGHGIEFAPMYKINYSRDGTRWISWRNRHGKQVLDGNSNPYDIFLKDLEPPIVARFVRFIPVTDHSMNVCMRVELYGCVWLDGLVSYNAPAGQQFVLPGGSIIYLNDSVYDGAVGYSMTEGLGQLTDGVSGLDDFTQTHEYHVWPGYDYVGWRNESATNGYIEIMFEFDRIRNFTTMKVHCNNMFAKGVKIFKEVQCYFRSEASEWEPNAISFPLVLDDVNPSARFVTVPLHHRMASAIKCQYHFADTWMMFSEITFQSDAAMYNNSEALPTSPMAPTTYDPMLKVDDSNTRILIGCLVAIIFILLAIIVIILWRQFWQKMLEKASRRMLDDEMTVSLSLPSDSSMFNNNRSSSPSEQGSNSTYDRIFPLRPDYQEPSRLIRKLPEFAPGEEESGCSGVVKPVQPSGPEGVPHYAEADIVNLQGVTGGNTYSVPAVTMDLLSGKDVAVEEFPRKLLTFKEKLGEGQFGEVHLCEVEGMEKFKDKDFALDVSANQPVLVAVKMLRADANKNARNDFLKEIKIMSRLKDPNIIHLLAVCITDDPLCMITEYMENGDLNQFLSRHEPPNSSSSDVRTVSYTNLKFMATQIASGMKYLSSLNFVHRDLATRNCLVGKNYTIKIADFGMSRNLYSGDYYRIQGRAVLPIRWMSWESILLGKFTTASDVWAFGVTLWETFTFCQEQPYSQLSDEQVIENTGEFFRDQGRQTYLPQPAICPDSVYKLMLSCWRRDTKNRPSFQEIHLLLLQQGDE
Conditions: at 10 µM
Use % as the unit, but write only the number.

A selection of reference data follows.
# smilesRecord, systemTested, unitsText, residual activity
data = [
    ("O=c1[nH]c2ccccc2n1C1CCN(Cc2ccc(-c3nc4cc5[nH]cnc5cc4nc3-c3ccccc3)cc2)CC1", "Discoidin domain-containing receptor 2 (Homo sapiens)", "%", 85),
    ("CC(C)[C@H](CO)Nc1nc(Nc2cccc(Cl)c2)c2ncn(C(C)C)c2n1", "Discoidin domain-containing receptor 2 (Homo sapiens)", "%", 92),
]

Now let's try a different one.
Qu. Item `O=C1NC(=O)c2c1c1c3ccccc3n3c1c1c2c2ccccc2n1C1CCC3O1` has what recorded residual activity?
Ans. 81
